- Tested on: HepG2
- EXPERIMENT: Cytotoxicity against human HepG2 cells assessed as growth inhibition at 40 ug/mL after 72 hrs by MTT assay
- Assay type: functional
- ASSAY_SETUP: HepG2, 72 h, read-out: GI
Measured inhibition of growth at 40 µg/mL, listed per entry for reference.
Provide the reading as a plain figure in %.

Example results:
*Q* Return reported inhibition of growth at 40 µg/mL; argument: Cc1ccc(CNC(=O)c2cc3c([nH]c4ccccc43)c(C(=O)c3c[nH]c4ccccc34)n2)cc1
*A* 63.9

*Q* Return reported inhibition of growth at 40 µg/mL; argument: COc1cc(CNC(=O)c2cc3c([nH]c4ccccc43)c(C(=O)c3c[nH]c4ccccc34)n2)ccc1O
*A* 80.9

*Q* Return reported inhibition of growth at 40 µg/mL; argument: COc1ccc(CCNC(=O)c2cc3c([nH]c4ccccc43)c(C(=O)c3c[nH]c4ccccc34)n2)cc1OC
*A* 31.7

*Q* Return reported inhibition of growth at 40 µg/mL; argument: COC(=O)c1cc2c([nH]c3ccccc32)c(C(=O)c2c[nH]c3ccccc23)n1
*A* 62.7

*Q* Return reported inhibition of growth at 40 µg/mL; argument: O=C(O)c1cc2c([nH]c3ccccc32)c(C(=O)c2c[nH]c3ccccc23)n1
*A* 78.4

*Q* Return reported inhibition of growth at 40 µg/mL; argument: O=C(NCCc1c[nH]c2ccccc12)c1cc2c([nH]c3ccccc32)c(C(=O)c2c[nH]c3ccccc23)n1
*A* 74.4

More entries:
*Q* Return reported inhibition of growth at 40 µg/mL; argument: O=C(NCCc1ccc(F)cc1)c1cc2c([nH]c3ccccc32)c(C(=O)c2c[nH]c3ccccc23)n1
*A* 72.4

*Q* Return reported inhibition of growth at 40 µg/mL; argument: COc1cccc(CCNC(=O)c2cc3c([nH]c4ccccc43)c(C(=O)c3c[nH]c4ccccc34)n2)c1
*A* 40.1

---

- EXPERIMENT: Cytotoxicity against African green monkey MARC145 cells assessed as growth inhibition at 40 ug/mL after 72 hrs by MTT assay
- Assay type: functional
- ASSAY_SETUP: Chlorocebus aethiops, MARC145, 72 h; read-out: GI
Use yes when the recorded inhibition of growth at 40 µg/mL is no lower than 60%; use no when it is lower.

# count of solved cases: 10
*Q* Decide: is the reported value of inhibition of growth at 40 µg/mL for Cc1ccc(CNC(=O)c2cc3c([nH]c4ccccc43)c(C(=O)c3c[nH]c4ccccc34)n2)cc1 equal to or greater than 60%?
*A* no

*Q* Decide: is the reported value of inhibition of growth at 40 µg/mL for O=C(c1c[nH]c2ccccc12)c1nccc2c1[nH]c1ccccc12 equal to or greater than 60%?
*A* no

*Q* Decide: is the reported value of inhibition of growth at 40 µg/mL for CS(=O)(=O)CCNC(=O)c1cc2c([nH]c3ccccc32)c(C(=O)c2c[nH]c3ccccc23)n1 equal to or greater than 60%?
*A* yes

*Q* Decide: is the reported value of inhibition of growth at 40 µg/mL for O=C(NCCc1ccc(F)cc1)c1cc2c([nH]c3ccccc32)c(C(=O)c2c[nH]c3ccccc23)n1 equal to or greater than 60%?
*A* yes

*Q* Decide: is the reported value of inhibition of growth at 40 µg/mL for O=C(NCc1cccnc1)c1cc2c([nH]c3ccccc32)c(C(=O)c2c[nH]c3ccccc23)n1 equal to or greater than 60%?
*A* yes

*Q* Decide: is the reported value of inhibition of growth at 40 µg/mL for O=C(Nc1ccc(F)cc1)c1cc2c([nH]c3ccccc32)c(C(=O)c2c[nH]c3ccccc23)n1 equal to or greater than 60%?
*A* no

*Q* Decide: is the reported value of inhibition of growth at 40 µg/mL for O=C(NCc1ccccc1)c1cc2c([nH]c3ccccc32)c(C(=O)c2c[nH]c3ccccc23)n1 equal to or greater than 60%?
*A* yes

*Q* Decide: is the reported value of inhibition of growth at 40 µg/mL for O=c1[nH]cc(F)c(=O)[nH]1 equal to or greater than 60%?
*A* yes

*Q* Decide: is the reported value of inhibition of growth at 40 µg/mL for O=C(NCCc1c[nH]c2ccccc12)c1cc2c([nH]c3ccccc32)c(C(=O)c2c[nH]c3ccccc23)n1 equal to or greater than 60%?
*A* yes

*Q* Decide: is the reported value of inhibition of growth at 40 µg/mL for O=C(O)c1cc2c([nH]c3ccccc32)c(C(=O)c2c[nH]c3ccccc23)n1 equal to or greater than 60%?
*A* yes

More entries:
*Q* Decide: is the reported value of inhibition of growth at 40 µg/mL for COC(=O)c1cc2c([nH]c3ccccc32)c(C(=O)c2c[nH]c3ccccc23)n1 equal to or greater than 60%?
*A* no

*Q* Decide: is the reported value of inhibition of growth at 40 µg/mL for O=C(NCCc1ccccc1)c1cc2c([nH]c3ccccc32)c(C(=O)c2c[nH]c3ccccc23)n1 equal to or greater than 60%?
*A* yes

*Q* Decide: is the reported value of inhibition of growth at 40 µg/mL for COc1ccc(NC(=O)c2cc3c([nH]c4ccccc43)c(C(=O)c3c[nH]c4ccccc34)n2)cc1 equal to or greater than 60%?
*A* no

*Q* Decide: is the reported value of inhibition of growth at 40 µg/mL for O=C(NCc1ccccn1)c1cc2c([nH]c3ccccc32)c(C(=O)c2c[nH]c3ccccc23)n1 equal to or greater than 60%?
*A* yes
